SYSTEM_NAME: MAST2, Q6P0Q8
Sequence (Q6P0Q8 1099-1202): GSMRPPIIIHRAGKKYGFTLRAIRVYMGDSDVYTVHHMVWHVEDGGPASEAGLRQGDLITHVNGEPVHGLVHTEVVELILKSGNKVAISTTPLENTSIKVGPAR
ASSAY_COMMENT: holdup assay
Design: key: below the threshold = too weak to quantify, mostly under pKd 3.1 to 4
MEASUREMENT_SETUP: plain residues with an end cap or a label only (N-terminal biotin on a linker: ado-ado)
# Lookup of reported pKd keyed by entry

BINDER	pKd
IQISELETNV [SLC1A7, O00341]	5.61
HDDYFYHDEL [RCN2, Q14257]	4.85
ATKDKKITTV [EXOC4, Q96A65]	4.92
FHSIKQSTAV [CRHR1, P34998]	5.35
NKSEPFLTWL [WWTR1, Q9GZV5]	5.65
TNSKQGETTV [FZD1, Q9UP38]	4.88
GDSSRKEYFI [GYPC, P04921]	3.68
